# TEST TARGET: T1, human Gal10-His (human, UniProt Q05315 2-142, limits assumed)
# T1 construct: also called hGal10-His; human Gal10-His tagged; not shown: His tag
# T1 sequence: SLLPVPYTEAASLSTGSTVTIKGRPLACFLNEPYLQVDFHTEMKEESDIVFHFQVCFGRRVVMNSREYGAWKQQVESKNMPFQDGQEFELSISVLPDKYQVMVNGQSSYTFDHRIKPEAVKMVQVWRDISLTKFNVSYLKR
# RUN DESCRIPTION: SPR, overview table of lead Fab candidates
Please provide measured koff for the entries that follow.
Give bare numbers, in s⁻¹.

BINDER	OBSERVED RESULT
g7B07_N53A (human Fab) (Fab, V domains shown, VH assembled by inference as for g7B07; Human Fab backbone; also called g7B07_N53A (mean)) VH: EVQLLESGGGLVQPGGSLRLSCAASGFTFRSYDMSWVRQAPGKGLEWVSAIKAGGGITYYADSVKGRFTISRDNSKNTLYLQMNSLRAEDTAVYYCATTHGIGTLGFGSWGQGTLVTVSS VL: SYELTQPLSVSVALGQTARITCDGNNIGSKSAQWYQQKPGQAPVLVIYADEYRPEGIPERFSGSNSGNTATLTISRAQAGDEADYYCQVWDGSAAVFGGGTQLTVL	0.079
g20H09 (Fab) (Fab, V domains shown, same VH/VL) VH: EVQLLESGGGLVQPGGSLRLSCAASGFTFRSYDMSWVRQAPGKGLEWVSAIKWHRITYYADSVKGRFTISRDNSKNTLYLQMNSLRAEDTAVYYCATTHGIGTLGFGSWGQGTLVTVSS VL: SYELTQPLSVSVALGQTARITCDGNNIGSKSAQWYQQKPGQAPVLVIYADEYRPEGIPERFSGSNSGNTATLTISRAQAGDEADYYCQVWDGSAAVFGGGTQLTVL	0.047
g23H09 (Fab) (Fab, V domains shown, same VH/VL) VH: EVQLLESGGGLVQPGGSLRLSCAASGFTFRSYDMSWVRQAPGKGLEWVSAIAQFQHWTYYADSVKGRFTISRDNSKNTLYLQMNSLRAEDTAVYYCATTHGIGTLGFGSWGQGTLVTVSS VL: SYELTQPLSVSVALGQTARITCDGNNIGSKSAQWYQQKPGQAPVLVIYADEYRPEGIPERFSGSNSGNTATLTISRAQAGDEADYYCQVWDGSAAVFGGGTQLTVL	0.0031

Attention now shifts to the item below.
Please fill in: koff reported for g24F02_N53A (human Fab) (Fab, V domains shown, Human Fab backbone: human CH1 and human lambda constant domain (pUPEX vectors); also called g24F02_N53A_2W) VH: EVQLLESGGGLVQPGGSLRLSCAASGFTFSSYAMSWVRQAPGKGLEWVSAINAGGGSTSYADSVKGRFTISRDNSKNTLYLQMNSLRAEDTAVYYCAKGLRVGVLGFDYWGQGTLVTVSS VL: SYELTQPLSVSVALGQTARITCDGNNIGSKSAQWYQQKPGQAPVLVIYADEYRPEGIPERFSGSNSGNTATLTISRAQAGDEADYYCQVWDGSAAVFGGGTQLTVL = 0.0018

Data origin: patent US20250059285A1
